- measured on: T1, mouse IL-18BPd-human IgG Fc (R&D Systems, Cat. #122-BP-100) (mouse; human, UniProt Q9Z0M9 29-193)
- T1 construct: Bought; also called mouse IL-18BPd-Fc Chimera
- T1 sequence (looked up): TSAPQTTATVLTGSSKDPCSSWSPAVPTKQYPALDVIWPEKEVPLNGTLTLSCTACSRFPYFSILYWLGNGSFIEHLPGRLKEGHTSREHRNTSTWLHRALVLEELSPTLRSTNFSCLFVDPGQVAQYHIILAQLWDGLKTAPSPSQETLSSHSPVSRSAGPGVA
- assay: blocking ELISA, competitor mouse IL-18
# blocking ELISA signal normalized to isotype control (=1) listing for each entry below
property measured: blocking ELISA signal normalized to isotype control (=1)

binder="anti-IL18BP antibody BP-07 (antibody, human IgG1, V domains shown) VH: EVQLQQSGPELVKPGASVKISCRASGFTITDYNMDWVRQSHGKSLEWIGNINLNNGGSIYNQKFKGKATLTIDKSSSTAYMELRSLTSEDTAVYYCARSDTTVVASRYYAMDYWGQGTSVTVSS VL: DIVLTQSPASLAMSLGKRATISCRASESVSIIGTNLIHWYQQKPGQPPKLLIYHASNLETGVPVRFSGSGSRTDFTLTIDPVEEDDVAIYYCLQSRKIPPTFGGGTKLEIK" result="0.156 ratio to isotype control"
binder="anti-IL18BP antibody BP-14 (antibody, human IgG1, V domains shown) VH: QVQLVQSGAEVKKPGASVKVSCKASGYTFTGYYMHWVRQAPGQGLEWMGIINPRGGSTSHAQKFQGRVTMTRDTSTSTVYMELSSLRSEDTAVYYCARGLELHWFDPWGQGTLVTVSS VL: DIQMTQSPSSLSASVGDRVTITCRASQNIRSWLAWYQQKPGKAPKLLIYAASSLQSGVPSRFSGSGSGTDFTLTISSLQPEDFATYYCQQANSFPYTFGQGTKLEIK" result="0.202 ratio to isotype control"

Sourced from patent US20250333523A1
